ASSAYED TARGET: T1, Bdf1 bromodomain 1 (GST-tagged, WT) (Saccharomyces cerevisiae (strain ATCC …, UniProt P35817))
T1 chain: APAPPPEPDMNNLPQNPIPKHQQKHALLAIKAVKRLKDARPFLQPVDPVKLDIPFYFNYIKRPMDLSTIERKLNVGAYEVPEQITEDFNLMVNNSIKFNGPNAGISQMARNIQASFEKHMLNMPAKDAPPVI
TEST NAME: histone peptide array probed with recombinant GST-bromodomain, signal normalised to myc peptide control
Non-standard residues stand in square brackets, D forms with d. No end group written: not given here. Arg(Me2a) = CN(C)C(=N)NCCC[C@H](N)C(=O)O; Arg(Me2s) = CN=C(NC)NCCC[C@H](N)C(=O)O; pT = C[C@@H](OP(=O)(O)O)[C@H](N)C(=O)O; pS = N[C@@H](COP(=O)(O)O)C(=O)O; Lys(Me) = CNCCCC[C@H](N)C(=O)O
MEASUREMENT KIND: binding score
// response body must contain only the number

// known answers, use as guide
ARTKQTARKSTGGKAPRKQ (A R T K Q T A Rme2s Kme3 pS T G G K A P R K Q) | 0.00305
ARTKQTARKSTGGKAPRKQ (A R T K Q T A R Kme3 S T G G Kac A P R K Q) | 0.0133
ARTKQTARKSTGGKAPRKQ (A R T Kme2 Q T A Rme2s Kac S T G G K A P R K Q) | 0.0301
ARTKQTARKSTGGKAPRKQ (A Rme2a T Kme2 Q T A Rme2a Kac S T G G K A P R K Q) | 0.0126
ARTKQTA[Arg(Me2a)]K(Ac)[pS][pT]GGKAPRKQ | 0.00663

input: Query (binder): PRKQLATKAA[Arg(Me2s)][Lys(Me)]SAPATGG ; field requested: binding score
output: 0

input: Param item = A[Arg(Me2a)][pT]KQTARKSTGGKAPRKQ ; retrieve measured binding score.
output: 0

Source listed as paper PMC5261807.
